The measurements presented in this section are drawn from ChEMBL document CHEMBL2010764.

Tested on: T47D
Test: Antiproliferative activity against human T47D cells assessed as decrease in cell number after 72 hrs by WST assay
Assay type: functional, cell-based
VALUE TYPE: pIC50
In simple prose, pIC50 is minus the logarithm base ten of a concentration in moles per litre.

Exercise: Supply recorded pIC50 for `C=C1/C(=C\C=C2/CCC[C@]3(C)[C@@H]([C@H](C)CC#CP(=O)(OCC)OCC)CC[C@@H]23)C[C@@H](O)C[C@@H]1O` here.
Key: 8.32
